# protocol.notes: Displacement of calixarene-LCG from synthetic H3K27 peptide by isothermal titration calorimetry analysis
observation.type: Kd (µM)

- compound: "O=S(=O)(O)c1cc2c(O)c(c1)Cc1cc(S(=O)(=O)O)cc(c1O)Cc1cc(S(=O)(=O)O)cc(c1O)Cc1cc(-c3ccccc3)cc(c1O)C2"
  experimental.result: 51.4

----------
# protocol.notes: Displacement of calixarene-LCG from synthetic H3K27me3 peptide

- compound: "O=S(=O)(O)c1cc2c(O)c(c1)Cc1cc(S(=O)(=O)O)cc(c1O)Cc1cc(S(=O)(=O)O)cc(c1O)Cc1cc(Br)cc(c1O)C2"
  readout.unit: "nM"
  relation.operator: "="
  Kd: 700
- compound: "O=S(=O)(O)c1cc2c(O)c(c1)Cc1cc(S(=O)(=O)O)cc(c1O)Cc1cc(S(=O)(=O)O)cc(c1O)Cc1cc(-c3ccccc3)cc(c1O)C2"
  readout.unit: "nM"
  relation.operator: "="
  Kd: 750
- compound: "O=S(=O)(O)c1cc2c(O)c(c1)Cc1cc(S(=O)(=O)O)cc(c1O)Cc1cc(S(=O)(=O)O)cc(c1O)Cc1cc(S(=O)(=O)O)cc(c1O)C2"
  readout.unit: "nM"
  relation.operator: "="
  Kd: 5400
- compound: "Cc1ccc(S(=O)(=O)Nc2cc3c(O)c(c2)Cc2cc(S(=O)(=O)O)cc(c2O)Cc2cc(S(=O)(=O)O)cc(c2O)Cc2cc(S(=O)(=O)O)cc(c2O)C3)cc1"
  readout.unit: "nM"
  relation.operator: ">"
  Kd: 100000
- compound: "N#Cc1ccc(-c2cc3c(O)c(c2)Cc2cc(S(=O)(=O)O)cc(c2O)Cc2cc(S(=O)(=O)O)cc(c2O)Cc2cc(S(=O)(=O)O)cc(c2O)C3)cc1"
  readout.unit: "nM"
  relation.operator: "="
  Kd: 880
- compound: "O=[N+]([O-])c1cc2c(O)c(c1)Cc1cc(S(=O)(=O)O)cc(c1O)Cc1cc(S(=O)(=O)O)cc(c1O)Cc1cc(S(=O)(=O)O)cc(c1O)C2"
  readout.unit: "nM"
  relation.operator: "="
  Kd: 10000
- compound: "NC(=O)c1ccc(-c2cc3c(O)c(c2)Cc2cc(S(=O)(=O)O)cc(c2O)Cc2cc(S(=O)(=O)O)cc(c2O)Cc2cc(S(=O)(=O)O)cc(c2O)C3)cc1"
  readout.unit: "nM"
  relation.operator: "="
  Kd: 1860
- compound: "COc1cccc(-c2cc3c(O)c(c2)Cc2cc(S(=O)(=O)O)cc(c2O)Cc2cc(S(=O)(=O)O)cc(c2O)Cc2cc(S(=O)(=O)O)cc(c2O)C3)c1OC"
  readout.unit: "nM"
  relation.operator: "="
  Kd: 2130
- compound: "Cc1ccc(-c2cc3c(O)c(c2)Cc2cc(S(=O)(=O)O)cc(c2O)Cc2cc(S(=O)(=O)O)cc(c2O)Cc2cc(S(=O)(=O)O)cc(c2O)C3)cc1"
  readout.unit: "nM"
  relation.operator: "="
  Kd: 340
- compound: "COc1ccc(-c2cc3c(O)c(c2)Cc2cc(S(=O)(=O)O)cc(c2O)Cc2cc(S(=O)(=O)O)cc(c2O)Cc2cc(S(=O)(=O)O)cc(c2O)C3)cc1"
  readout.unit: "nM"
  relation.operator: "="
  Kd: 780
